assayed.target: Glucocorticoid receptor (Homo sapiens)
protocol: qHTS assay for small molecule agonists of glucocorticoid receptor signaling (AID 588532);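 note: 100% = dexamethasone at 0.1 µM and 0% = DMSO only wells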
measurement.setup: HeLa MMTV-bla, beta-lactamase ratio, agonist, 18 h; hits give high values, percent of dexamethasone control, DMSO zero
Inconclusive results are not listed.
Each item that follows carries a reported activation.
Numeric answer only, unit % assumed.

Known activation results, listed for orientation:
# compound, activation [%]
rows = [
    ("O=[N+]([O-])c1ccc(Cl)c([N+](=O)[O-])c1", 0.437),
    ("CC(Oc1cccc(Cl)c1)C(=O)O (stereo not drawn)", -9.84),
    ("O=C(Nc1ccccc1)Nc1ccnc(Cl)c1", -0.972),
    ("CC1(C)[C@@H](C=C(Cl)Cl)[C@@H]1C(=O)OCc1cccc(Oc2ccccc2)c1", 0.397),
]

Prompt: Data request, read-out activation, for CCCCC(CC)CO[N+](=O)[O-] (stereo not drawn)
Response: -6.71

Prompt: Entry `CC(C)(C)OOC(C)(C)c1ccc(C(C)(C)OOC(C)(C)C)cc1` has what activation?
Response: -6.76

Prompt: // query activation value for entry CCc1cnc(C2=NC(C)(C(C)C)C(=O)N2)c(C(=O)O)c1 (stereo not drawn)
Response: -7.69

Prompt: What does the data say about its activation? Entry: CC(C)C1(C)N=C(c2ncccc2C(=O)O)NC1=O (stereo not drawn)
Response: 0.632

Prompt: I would be grateful if you could share the reported activation for `CC(C)N(C(=O)SCC(Cl)=C(Cl)Cl)C(C)C` .
Response: 18.5

Prompt: For the compound CCOP(=S)(NC(C)C)Oc1ccccc1C(=O)OC(C)C (stereo not drawn) , what activation is on record?
Response: -0.106

Prompt: What value of activation has been recorded for this entry: `CCOS(=O)(=O)OCC`
Response: -9.13

Prompt: I'd like to know its activation. The compound in question is `CCc1ccc(C(=O)NN(C(=O)c2cc(C)cc(C)c2)C(C)(C)C)cc1`
Response: -6.89

Prompt: For the compound shown here, `CCOP(=S)(OCC)SCCl` , give the reported activation.
Response: 12.1

Prompt: Looking for the measured activation of `CC(C)(C)N(NC(=O)c1ccc(Cl)cc1)C(=O)c1ccccc1` , can you help?
Response: -0.985

Prompt: Query (compound): `CS(=O)(=O)c1cc(C(F)(F)F)ccc1C(=O)c1cnoc1C1CC1` ; field requested: activation
Response: 11.4

Prompt: Any idea what activation was measured for CCCN(CC)CC1COC2(CCC(C(C)(C)C)CC2)O1 (stereo not drawn) ?
Response: 11.4

Prompt: Report activation for `CNc1cnn(-c2cccc(C(F)(F)F)c2)c(=O)c1Cl` please.
Response: -4.87

Prompt: Look up activation for this compound: `CCN(CC)C(=O)SCc1ccc(Cl)cc1`
Response: -4.08

Prompt: I'd like to know its activation. The compound in question is `CCOP(=O)(OCC)SCSP(=S)(OCC)OCC`
Response: -5.04

Prompt: Need activation, item `Clc1ccc([C@@]2(Cn3cncn3)C[C@@H](Br)CO2)c(Cl)c1`
Response: -12.1

Prompt: Given the entry `Cc1cc(C)nc(NC(=O)NS(=O)(=O)c2ccccc2C(=O)OC2COC2)n1` , report its measured activation.
Response: 10.1
